Assay: Durability of poly(allyl diglycol carbonate) lens impregnated with the compound in silicone oil, as in Example 9 (Example 10)
Assay type: physicochemical
Details: silicone oil impregnation
Experimental: T1/2 is defined as the time required for the color density to decrease to half of its initial value when the film is exposed to the fadeometer. The solution was impregnated in the surface of a lens composed of poly(allyl diglycol carbonate) at 200° C. for 1 hour. The concentration of the solution was adjusted to 1.0×10^-4 mole/g.
Listed next: entries and their corresponding λmax.
Answer in nm, number only, no unit symbol.

# example entries with known answers
[
  {
    "molecule": "O=C1C2=C(C3CC3)c3sc4c(c3C3(C5CCCC3CCC5)C2C(=O)N1CCc1cccc2ccccc12)CCCC4 (stereo not shown)",
    "endpoint unit": "nm",
    "λmax": 525
  },
  {
    "molecule": "Cc1cc2c(n1C)C1(C3CC4CC(F)(C3)CC1(F)C4)C1C(=O)N(C3CCC([N+](=O)[O-])CC3)C(=O)C1=C2C1CC1 (stereo not shown)",
    "endpoint unit": "nm",
    "λmax": 535
  }
]

# input What value of λmax has been recorded for this entry: CC(=O)CN1C(=O)C2=C(C3CC3C)c3cc(-c4ccccc4)sc3C3(C4CCC3CC4)C2C1=O (stereo not shown)
# output 615

# input Same question, N#CCN1C(=O)C2=C(C3CC3)c3ccsc3C3(C4CCC3CC4)C2C1=O (stereo not shown) this time
# output 568
